Test system: HOP-92 NSCLC
Assay: NCI-60 one-dose screen, 48 h (100 = growth as untreated, 0 = no growth, -100 = all killed)
Details: 10 µM unless noted
The panel holds about 83,000 compounds, 20% with a hit somewhere; the sample as a whole holds those more often.
compounds and their reported growth
parameter: growth (%)

compound: O=C(Nc1nc2ccc(F)cc2s1)c1cccnc1Nc1ccc(Cl)cc1Cl
parameter: growth
numeric.value: -6.79
--
compound: Clc1ccc(C(/C=C/c2sc(Cl)nc2Cl)=N/Nc2cc(Cl)cc(Cl)c2)cc1
parameter: growth
numeric.value: 93
--
compound: COC(=O)CCC/C=C\C[C@H]1C=CC(=O)/C1=C/C[C@@H](O)CCc1cccc(C(F)(F)F)c1
parameter: growth
numeric.value: -37.1
--
compound: Cn1cc(-c2ccc3cc(-c4ccc(CC(=O)Nc5cc(C(C)(C)C)nn5C)cc4)cnc3c2)cn1
parameter: growth
numeric.value: 21.1
--
compound: Cc1c(C(=O)NCCCc2ccccc2)sc2ncc(-c3ccc(Br)cc3)n12
parameter: growth
numeric.value: 113
--
compound: COc1cccc2c(=O)c3c(sc12)c(N1CCNCC1)nc1ccccc13
parameter: growth
numeric.value: 51.7
--
compound: O=C(/C=C/c1sc(Cl)nc1Cl)c1ccc(Br)cc1
parameter: growth
numeric.value: 90.2
--
compound: Cc1cc(O)c(C2=NN(c3ccc(S(N)(=O)=O)cc3)C(/C=C/c3ccccc3)C2)cc1Cl (centres undefined)
parameter: growth
numeric.value: 29.6
--
compound: CN1CCN(CC(=O)N2c3cccc4cccc(c34)N(C(=O)CN3CCN(C)CC3)C2c2cn(-c3ccccc3)nc2-c2cccc([N+](=O)[O-])c2)CC1
parameter: growth
numeric.value: 42.9

The reported measurements were obtained from PubChem BioAssay (NCI).
